Please respond with reported pIC50 for every item in the list.
Please treat pIC50 as minus the base-10 logarithm of the molar concentration.

Ask: Request: pIC50, test system α9α10 nAChRs (Rattus norvegicus, UniProt P43144+Q9JLB5), entry Cc1cc[n+](CCCc2ccc(-c3ccc(CCC[n+]4ccc(C)c(C)c4)cc3)cc2)cc1C.[Br-].[Br-] [Compound 8a]
Reply: 6.17

Ask: Request: pIC50, test system α9α10 nAChRs (Rattus norvegicus, UniProt P43144+Q9JLB5), entry C(#Cc1cc(C#CCCC[n+]2cccc(-c3ccccc3)c2)cc(C#CCCC[n+]2cccc(-c3ccccc3)c2)c1)CCC[n+]1cccc(-c2ccccc2)c1 [Compound 9e]
Reply: 8.77

Ask: Request: pIC50, test system α9α10 nAChRs (Rattus norvegicus, UniProt P43144+Q9JLB5), entry c1ccc(-c2ccc[n+](CCCCCc3cc(CCCCC[n+]4cccc(-c5ccccc5)c4)cc(CCCCC[n+]4cccc(-c5ccccc5)c4)c3)c2)cc1 [Compound 10e]
Reply: 8.43

###

# experimental.system: α9α10 nAChRs (Rattus norvegicus, UniProt P43144+Q9JLB5)
# Sequence (P43144 26-479): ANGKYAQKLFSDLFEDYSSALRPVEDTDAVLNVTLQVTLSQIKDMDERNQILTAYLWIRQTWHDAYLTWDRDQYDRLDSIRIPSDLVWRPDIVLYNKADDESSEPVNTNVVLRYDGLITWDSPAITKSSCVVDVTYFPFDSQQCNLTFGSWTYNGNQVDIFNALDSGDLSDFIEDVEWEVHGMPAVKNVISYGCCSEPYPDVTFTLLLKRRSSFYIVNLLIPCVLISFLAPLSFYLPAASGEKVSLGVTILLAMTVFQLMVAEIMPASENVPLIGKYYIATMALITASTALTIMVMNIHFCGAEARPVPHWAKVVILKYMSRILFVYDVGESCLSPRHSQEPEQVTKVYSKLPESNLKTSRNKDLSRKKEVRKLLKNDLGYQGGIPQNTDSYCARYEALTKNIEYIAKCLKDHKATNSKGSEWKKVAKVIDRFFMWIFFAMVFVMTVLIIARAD
# Sequence (Q9JLB5 25-447): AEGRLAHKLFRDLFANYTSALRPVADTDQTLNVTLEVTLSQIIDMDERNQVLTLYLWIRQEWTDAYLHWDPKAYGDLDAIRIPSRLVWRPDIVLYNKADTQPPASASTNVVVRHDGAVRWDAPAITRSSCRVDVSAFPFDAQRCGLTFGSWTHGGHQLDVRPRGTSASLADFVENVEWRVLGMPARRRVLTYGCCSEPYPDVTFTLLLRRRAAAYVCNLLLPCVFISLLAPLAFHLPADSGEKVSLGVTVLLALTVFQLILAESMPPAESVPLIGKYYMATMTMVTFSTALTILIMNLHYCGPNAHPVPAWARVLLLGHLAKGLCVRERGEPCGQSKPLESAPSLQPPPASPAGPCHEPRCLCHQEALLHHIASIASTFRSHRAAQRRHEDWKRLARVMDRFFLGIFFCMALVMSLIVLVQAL
# Format: cell-based
measurement.name: IC50 (nM)
Dear colleague, please return just the value in nM, with no unit written.

Ask: Request: IC50, test system α9α10 nAChRs (Rattus norvegicus, UniProt P43144+Q9JLB5), entry c1ccc2c[n+](CCCCCc3cc(CCCCC[n+]4ccc5ccccc5c4)cc(CCCCC[n+]4ccc5ccccc5c4)c3)ccc2c1 [Compound 10d]
Reply: 4.8

Ask: Request: IC50, test system α9α10 nAChRs (Rattus norvegicus, UniProt P43144+Q9JLB5), entry [Br-].[Br-].[Br-].c1ccc2c(c1)ccc[n+]2CCCCCc1cc(CCCCC[n+]2cccc3ccccc32)cc(CCCCC[n+]2cccc3ccccc32)c1 [Compound 10c]
Reply: 4.2

Ask: Request: IC50, test system α9α10 nAChRs (Rattus norvegicus, UniProt P43144+Q9JLB5), entry C(#Cc1cc(C#CCCC[n+]2cccc(-c3ccccc3)c2)c(C#CCCC[n+]2cccc(-c3ccccc3)c2)cc1C#CCCC[n+]1cccc(-c2ccccc2)c1)CCC[n+]1cccc(-c2ccccc2)c1.[Br-].[Br-].[Br-].[Br-] [Compound 11e]
Reply: 0.56
